Reference source for all entries: patent US20250206836A1

# Tgt: purified biotin-tagged human CD36 (human, UniProt P16671 30-439, limits assumed, biotin tag, site not stated)
# Sequence (P16671 30-439 limits assumed): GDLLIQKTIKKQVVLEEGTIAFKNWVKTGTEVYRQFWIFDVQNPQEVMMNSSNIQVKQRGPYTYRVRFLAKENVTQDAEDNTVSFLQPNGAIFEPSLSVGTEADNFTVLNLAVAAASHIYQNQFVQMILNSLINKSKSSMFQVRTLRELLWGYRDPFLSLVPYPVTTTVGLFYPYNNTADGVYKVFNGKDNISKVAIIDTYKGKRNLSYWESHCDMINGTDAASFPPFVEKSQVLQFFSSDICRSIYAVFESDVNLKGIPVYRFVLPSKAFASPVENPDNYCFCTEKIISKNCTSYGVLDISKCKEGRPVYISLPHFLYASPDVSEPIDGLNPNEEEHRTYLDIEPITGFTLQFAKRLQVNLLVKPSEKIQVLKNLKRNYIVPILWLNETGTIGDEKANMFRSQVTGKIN
# Test Description: AlphaScreen competition; competitor 1G04 on acceptor beads;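 note: streptavidin donor beads excited at 680 nm release singlet oxygen, and the light signal needs a nearby acceptor bead, with 30 min donor-bead incubation at 25 °C in the dark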
Here the recorded pEC50 is given for each entry.
By convention, pEC50 is the negative base-10 log of a molar concentration.

# example entries with known answers
21G04 (antibody, human IgG1, V domains shown, Chimeric: mouse variable regions on human IgG1 LALA (L234A/L235A)) VH: QVQLQQSGAELVKPGASVKLSCKASGYTFTSYWMHWVKQRPGQGLEWIGEIDPSDSHTNYNQKFKGKATLTVDKSSSTAYMQLSSLTSEDSAVYYCAPIYYGLDNWGQGTTLTVSS VL: ETTVTQSQKFMSTSVGDRVSVTCKASQNVGTNVAWYQQKPGQSPKALIYSASYRYSGVPDRFTGSGSGTDFTLTISNVQSEDLAEYFCQQYNSYPFTFGSGTKLEIK = 9.35
37G04 (antibody, human IgG1, V domains shown, Chimeric: chicken variable regions on human IgG1 LALA (L234A/L235A); also called 037G04) VH: AVTLDESGGGLQTPGGALSLVCKASGFTFSDYDMLWVRQAPGKGLEFVAGINAASTYTDYGAAVKGRATISRDNGQSTVRLQVNNLRAEDTGTYYCAKSSYGGGWSDVGSIDAWGHGTEVIVSS VL: ALTQPSSVSANPGETVKITCSGDRSYYGYGWYQQKAPGSAPVTVIYWDDKRPSDIPSRFSGSTSGSTATLTITGVQAEDEAVYFCGNMDSSYVGMFGAGTTLTVL = 8.00

Consider now this further binder.
Find the recorded pEC50 belonging to 29G04 (antibody, human IgG1, V domains shown, Chimeric: mouse variable regions on human IgG1 LALA (L234A/L235A); also called 029G04) VH: QVQLQQSGTELVKPGASVKLSCKASGYTFTSYWMHWVKQRPGQGLEWIGEIDPSDSHTNYNQKFKGKATLTVDKSSSTAYMQLSSLTSEDSAVYYCAPIYYGLDNWGQGTTLTVSS VL: DIVLTQSQKFMSTSVGDRVSVTCKASQNVGTNVAWYQQKPGQSPKALIYSASYRYSGVPDRFTGSGSGTDFTLTISNVQSEDLAEYFCQQYNSYPLTFGAGTKLELK and report it. 9.43
